Entry source: a melting point compilation (Tetko et al.; mined from patent text by program, amines drawn as free bases though some values may be those of a salt)

- smilesStructure: "CCc1ccc(-c2ccc3c(c2)C=C(C(=O)O)CCS3(=O)=O)cc1"
  melting point: "260 to 265 °C"
- smilesStructure: "O=C1OC(=O)c2cc(C(F)(F)F)ccc21"
  melting point: "54 °C"
- smilesStructure: "CCOC(=O)c1c[nH]cc1-c1cccc(F)c1"
  melting point: "120 to 122 °C"
- smilesStructure: "CN(C)C=C(C#N)C(=O)NCc1ccccc1Cl"
  melting point: "144 to 146 °C"
- smilesStructure: "COc1cccc2cc(C3CCN(C)CC3)oc12"
  melting point: "74 to 75 °C"
- smilesStructure: "Nc1nc(C2CCN(C(=O)Cc3ccc4c(c3)OCO4)CC2)c2ccccc2n1"
  melting point: "167 to 168 °C"
- smilesStructure: "CCOC(=O)C1=Cc2cc(-c3ccc(CC)cc3)ccc2OCC1"
  melting point: "81 to 83 °C"
- smilesStructure: "O=C(NNC(=O)C(F)(F)F)c1ccccc1"
  melting point: "153 to 154 °C"
- smilesStructure: "COc1cc(C)c2c(=O)c3c(C)c(Cl)ccc3oc2c1OC"
  melting point: "101 °C"
- smilesStructure: "COCCn1c2cc(OCCCO)c(OC)cc2c2c3c(c(-c4ccccc4Cl)cc21)C(=O)NC3=O"
  melting point: "251 to 257 °C"
- smilesStructure: "COc1cccc2c(CC(=O)O)coc12"
  melting point: "143 to 145 °C"

----------
Reported melting point values are given for each entry in this list.

- compound: "FC(F)(F)c1cccc(Nc2ccccc2-c2n[nH]c(=S)s2)c1"
  melting point: "140 to 142 °C"
- compound: "Cc1c(C(=O)O)oc2cc(SC(=O)N(C)C)ccc12"
  melting point: "188 to 190 °C"
- compound: "CC(C)c1n[nH]c2c(NCc3ccco3)ncnc12"
  melting point: "179 to 182 °C"
- compound: "O=c1ccc2c(n1CCc1ccccc1)CCCC2NCCc1ccc(Cl)c(Cl)c1 (stereo not given)"
  melting point: "120 to 122 °C"
- compound: "Cn1cc2c(n1)-c1sccc1N(C(=O)c1ccc(NC(=O)c3ccc(Cl)cc3Cl)cc1)CC2"
  melting point: "265 to 267 °C"

----------
measuredMetric: melting point

- molecule: "O=C(O)Cn1cc(C(=O)O)c(=O)c2cccc(Br)c(=O)c21"
  measuredMetric: "melting point"
  result: "173 to 175 °C"
- molecule: "CC(C)c1oc(-c2ccccc2)c(-c2ccc(F)c(Oc3ccccc3)c2)c1C=O"
  measuredMetric: "melting point"
  result: "137 °C"
- molecule: "OC[C@@H](COc1ccccc1)OC1CCCCO1 (stereo partly drawn)"
  measuredMetric: "melting point"
  result: "39 to 41 °C"
- molecule: "Cc1cc2c(cc1OCc1ccccc1)OC[C@@H](N1CCC(O)(c3ccc(F)cc3)CC1)[C@H]2O (relative stereo)"
  measuredMetric: "melting point"
  result: "201 to 202 °C"
- molecule: "CC(O)c1nsc2nc3ccccc3n12 (stereo not drawn)"
  measuredMetric: "melting point"
  result: "174 to 175 °C"
- molecule: "Cc1noc(-c2ccccc2)c1-c1ccc(S(C)(=O)=O)cc1"
  measuredMetric: "melting point"
  result: "144 to 145 °C"
- molecule: "CCOC(=O)c1cc2n(c1)C(C)Nc1ccccc1-2 (stereo not drawn)"
  measuredMetric: "melting point"
  result: "102 to 103 °C"
- molecule: "COc1cc(OCC(F)(F)C(F)F)nc(Oc2cc(C(F)(F)F)nn2C)c1"
  measuredMetric: "melting point"
  result: "73 to 74 °C"
- molecule: "CCCN1CC(NC(=O)C(C)(C)C)CC2c3cccc4[nH]c(Cl)c(c34)CC21 (stereo not drawn)"
  measuredMetric: "melting point"
  result: "146 to 147 °C"
- molecule: "O=C(O)c1ccc2ccccc2c1OCC(F)(F)F"
  measuredMetric: "melting point"
  result: "172 °C"
- molecule: "N#Cc1cc(-c2c3ccccc3cc3sc4ccccc4c23)cc(C#N)c1O"
  measuredMetric: "melting point"
  result: "274 to 276 °C"
- molecule: "CCCCCCCCCCc1ccc2c(c1)-n1c(C)nnc1C(C)N=C2c1ccccc1 (stereo not drawn)"
  measuredMetric: "melting point"
  result: "111 to 112 °C"
- molecule: "COC(=O)C1(CF)C=NN(C)N1 (stereo not drawn)"
  measuredMetric: "melting point"
  result: "64 to 66 °C"
- molecule: "Fc1ccc(Nc2ncnc3cnc(N4CCCCCC4)nc23)cc1Cl"
  measuredMetric: "melting point"
  result: "87 to 90 °C"
- molecule: "COc1ccc(Cn2ccnc2)cc1"
  measuredMetric: "melting point"
  result: "157 to 159 °C"
- molecule: "COc1ccc(C(=O)C=CN(C)C)cc1OC"
  measuredMetric: "melting point"
  result: "124 to 125 °C"
- molecule: "COC(=O)c1cn(C(c2ccccc2)(c2ccccc2)c2ccccc2)cn1"
  measuredMetric: "melting point"
  result: "147 to 152 °C"
- molecule: "O=C(O)CCC(Cc1ccc(Cl)c(Cl)c1)(C(=O)C=Cc1ccc(Cl)cc1)c1ccccc1 (stereo not drawn)"
  measuredMetric: "melting point"
  result: "155 to 156 °C"
- molecule: "Cc1c(Br)cccc1N1CCn2c(cc3c2CCCC3)C1=O"
  measuredMetric: "melting point"
  result: "163 to 165 °C"
- molecule: "COC(=O)CC(=O)C1CCC2C3CCC4CC(O)CCC4(C)C3C(=O)CC12C (stereo not drawn)"
  measuredMetric: "melting point"
  result: "150 to 152 °C"
- molecule: "Cn1c(C(F)(F)F)cc(=O)n(-c2c(F)cc(Cl)c3oc(CO)cc23)c1=O"
  measuredMetric: "melting point"
  result: "139 to 141 °C"
- molecule: "C=CCCc1ccc(C#N)c(O)n1"
  measuredMetric: "melting point"
  result: "122 to 125 °C"
- molecule: "CCCN(CCC)C(=O)c1cc(C(=O)N[C@@H](Cc2cc(F)cc(F)c2)[C@H](O)CNC2(c3cc(CN(C)C)ccn3)CC2)cc(-c2ncco2)c1"
  measuredMetric: "melting point"
  result: "70 to 72 °C"
- molecule: "COc1ccc2cc(N)cc(C)c2n1"
  measuredMetric: "melting point"
  result: "115 to 117 °C"
- molecule: "CCNC(=O)n1ccc(O)cc1=O"
  measuredMetric: "melting point"
  result: "272 °C"
- molecule: "CCN(CC)C(=O)Cc1c(-c2ccc(OC)cc2)nn2c(C)cc(C)nc12"
  measuredMetric: "melting point"
  result: "120 to 124 °C"
- molecule: "Cc1ccc2c(c1)Oc1sc(C)cc1C(=O)N2"
  measuredMetric: "melting point"
  result: "211 to 215 °C"
- molecule: "CCOc1nc(=O)n(C(=O)NC(Cl)=C(Cl)Cl)s1"
  measuredMetric: "melting point"
  result: "123 °C"
- molecule: "CC(=Cc1ccc(Br)cc1)c1ccc2c(C)c(C)c(C)c(C)c2c1"
  measuredMetric: "melting point"
  result: "133 to 136 °C"
- molecule: "O=C(N[C@H]1CN2CCC1CC2)C(Cc1ccccc1)c1ccccc1 (stereo partly drawn)"
  measuredMetric: "melting point"
  result: "142 °C"
- molecule: "Cc1cc(N2CCN(C(=O)c3ccc(Nc4ccnc5cc(C(F)(F)F)ccc45)cc3)CC2)nc(N)n1"
  measuredMetric: "melting point"
  result: "283 to 286 °C"
- molecule: "Cc1ccc(C(=O)c2ccc(C(C)C(=O)O)cc2)s1 (stereo not drawn)"
  measuredMetric: "melting point"
  result: "93.7 °C"
- molecule: "OC1CSC(Oc2cc(-c3cccnc3)ccc2Cl)C(O)C1O (stereo not drawn)"
  measuredMetric: "melting point"
  result: "172 °C"
- molecule: "O=C(CNc1ccccc1)N1CCC(Cc2ccccc2)CC1"
  measuredMetric: "melting point"
  result: "107 to 109 °C"
- molecule: "Nc1c(Cl)cc(C(O)CNCCCCCCOCCc2ccccn2)cc1C(F)(F)F (stereo not drawn)"
  measuredMetric: "melting point"
  result: "51.5 to 53 °C"
- molecule: "CCN(c1nc(C)cc(C(O)c2cnccc2-c2ccccc2OC)n1)c1ccc(C(C)C)cc1Br (stereo not drawn)"
  measuredMetric: "melting point"
  result: "68 to 70 °C"
- molecule: "O=C(O)CNCCn1nc(-c2c(-c3ccccc3)nn3ccccc23)ccc1=O"
  measuredMetric: "melting point"
  result: "230 to 232 °C"
- molecule: "Clc1cccc2c1c(Cl)nc1c(-c3nc(C4CC4)no3)ncn12"
  measuredMetric: "melting point"
  result: "238 to 240 °C"
